All values here come from paper PMC3343648.

System tested: p110α (Homo sapiens)
Sequence (P42336 whole entry, species assumed): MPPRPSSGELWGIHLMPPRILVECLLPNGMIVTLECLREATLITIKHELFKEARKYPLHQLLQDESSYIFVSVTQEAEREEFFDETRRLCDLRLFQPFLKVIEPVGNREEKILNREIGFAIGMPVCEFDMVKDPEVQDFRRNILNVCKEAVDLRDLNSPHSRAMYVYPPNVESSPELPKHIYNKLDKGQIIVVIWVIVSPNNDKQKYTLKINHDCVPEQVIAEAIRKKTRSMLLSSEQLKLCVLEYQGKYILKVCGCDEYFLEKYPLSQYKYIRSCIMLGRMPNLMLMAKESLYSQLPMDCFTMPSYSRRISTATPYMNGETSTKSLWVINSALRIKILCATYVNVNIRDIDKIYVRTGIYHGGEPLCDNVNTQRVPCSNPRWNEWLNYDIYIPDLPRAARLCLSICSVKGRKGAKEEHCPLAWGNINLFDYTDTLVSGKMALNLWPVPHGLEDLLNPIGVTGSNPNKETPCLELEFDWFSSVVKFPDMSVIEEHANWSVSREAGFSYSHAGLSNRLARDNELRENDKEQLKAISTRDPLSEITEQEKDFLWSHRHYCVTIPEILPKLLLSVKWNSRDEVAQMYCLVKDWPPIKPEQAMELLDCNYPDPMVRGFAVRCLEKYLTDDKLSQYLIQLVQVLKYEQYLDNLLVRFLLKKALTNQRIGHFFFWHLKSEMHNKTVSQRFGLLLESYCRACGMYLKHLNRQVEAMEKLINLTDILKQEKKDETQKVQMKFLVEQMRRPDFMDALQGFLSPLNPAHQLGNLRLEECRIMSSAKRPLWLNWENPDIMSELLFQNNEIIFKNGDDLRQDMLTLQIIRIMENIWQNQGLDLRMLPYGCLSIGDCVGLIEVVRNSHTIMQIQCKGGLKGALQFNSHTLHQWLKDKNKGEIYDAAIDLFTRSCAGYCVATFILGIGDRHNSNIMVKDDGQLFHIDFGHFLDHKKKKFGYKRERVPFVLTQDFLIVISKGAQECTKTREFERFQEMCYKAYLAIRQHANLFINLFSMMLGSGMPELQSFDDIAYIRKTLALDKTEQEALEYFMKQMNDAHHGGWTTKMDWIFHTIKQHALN
Sequence (P27986 whole entry partner, species assumed): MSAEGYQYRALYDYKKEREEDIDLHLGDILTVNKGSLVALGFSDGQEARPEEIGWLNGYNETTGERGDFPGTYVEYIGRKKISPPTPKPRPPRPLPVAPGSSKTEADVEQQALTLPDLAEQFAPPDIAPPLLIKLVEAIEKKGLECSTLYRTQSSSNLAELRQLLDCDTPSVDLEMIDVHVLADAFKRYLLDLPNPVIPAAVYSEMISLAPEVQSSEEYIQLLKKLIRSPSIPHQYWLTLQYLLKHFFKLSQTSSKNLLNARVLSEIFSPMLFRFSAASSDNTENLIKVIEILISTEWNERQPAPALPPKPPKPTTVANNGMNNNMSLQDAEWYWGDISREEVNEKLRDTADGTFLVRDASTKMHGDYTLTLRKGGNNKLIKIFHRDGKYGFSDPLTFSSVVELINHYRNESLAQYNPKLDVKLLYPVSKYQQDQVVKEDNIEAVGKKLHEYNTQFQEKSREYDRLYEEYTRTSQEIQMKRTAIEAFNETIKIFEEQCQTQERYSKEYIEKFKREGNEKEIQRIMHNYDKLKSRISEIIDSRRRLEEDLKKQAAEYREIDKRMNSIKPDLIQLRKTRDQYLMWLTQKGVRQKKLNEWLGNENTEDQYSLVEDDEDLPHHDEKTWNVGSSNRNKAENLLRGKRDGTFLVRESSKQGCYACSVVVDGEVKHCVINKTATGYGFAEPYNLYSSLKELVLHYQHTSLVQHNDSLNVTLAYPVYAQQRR
Test method notes: PI3K assay
Assay type: biochemical
Particulars: read-out: IC50 value, p110α; re-evaluated in the present study
Reported metric: IC50 (nM)
Write the answer as a number in nM, unit excluded.

In: Query: IC50; subject: O=C1NC(=O)/C(=C/c2ccc(-c3ccc(F)cc3O)o2)S1
Out: 80
